Metric name: melting point (°C)

COCC(O)c1ccc(-c2c(C)nc3c(N4CCOCC4)nccn23)cn1 (stereo not drawn)
106.9
Cc1nc2c(N3CCOCC3)ccnn2c1-c1ccc(C2(O)CCOCC2)nc1
189.2
COCC(O)c1ccc(-c2c(C)nc3c(N4CCOCC4)ccnn23)cn1 (stereo not drawn) [Compound 1]
137.2
Cc1nc2c(N3CCOCC3)nccn2c1-c1ccc(C2(O)CCOCC2)nc1
181.6
COCC(O)c1ccc(-c2c(C)nc3c(N4CCOCC4)ccnn23)cn1 (single isomer, unassigned) [Compound 1b]
135.7
COCC(O)c1ccc(-c2c(C)nc3c(N4CCOCC4)ccnn23)cn1 (single isomer, unassigned) [Compound 1a]
134.9

* * *

- Measurement notes: Plasma protein binding by equilibrium dialysis
- Assay type: in vitro ADME, human
- Particulars: male, human, plasma, pH 7.17, human plasma, 0.1 and 13 μg/ml pooled, three subjects in duplicate; read-out: Free fraction, Average (S.D.) (n = 12)
Metric name: fraction unbound at 4 h

COCC(O)c1ccc(-c2c(C)nc3c(N4CCOCC4)ccnn23)cn1 (single isomer, unassigned)
0.469

* * *

- Measurement notes: Plasma protein binding by equilibrium dialysis
- Assay type: in vitro ADME, human
- Particulars: male, human, plasma, pH 7.17, human plasma, 13 μg/ml; single determinations, subjects 1-3 in duplicate; equilibrium dialysis 4 h, 37° C.; read-out: Free fraction
Metric name: fraction unbound at 4 h, 13 μg/ml

COCC(O)c1ccc(-c2c(C)nc3c(N4CCOCC4)ccnn23)cn1 (single isomer, unassigned)
0.446

* * *

- Measurement notes: Plasma protein binding by equilibrium dialysis
- Format: in vitro ADME, human
- Particulars: male, human, plasma, pH 7.17, human plasma, 13 μg/ml; average of duplicate per subject; read-out: Free fraction, Average per subject
Metric name: fraction unbound at 4 h, 13 μg/ml

COCC(O)c1ccc(-c2c(C)nc3c(N4CCOCC4)ccnn23)cn1 (single isomer, unassigned)
0.448

* * *

- Measurement notes: Pharmacokinetics of oral microdose in healthy subjects
- Assay type: in vivo, human
- Particulars: male, human, plasma, 100 ug, single oral dose of 100 μg, fasted, mean
Metric name: Cmax (ng/mL)

COCC(O)c1ccc(-c2c(C)nc3c(N4CCOCC4)ccnn23)cn1 (stereo not shown)
0.758

* * *

- Measurement notes: Pharmacokinetics of oral microdose in healthy subjects
- Assay type: in vivo, human
- Particulars: male, human, plasma, 100 ug, single oral dose of 100 μg, fasted, mean
Metric name: AUC(0-t) (ng·h/mL)

COCC(O)c1ccc(-c2c(C)nc3c(N4CCOCC4)ccnn23)cn1 (stereo not shown)
2.61

* * *

- Measurement notes: Plasma protein binding by equilibrium dialysis
- Format: in vitro ADME, human
- Particulars: male, human, plasma, pH 7.17, human plasma, 0.1 μg/ml; average of duplicate per subject; read-out: Free fraction, Average per subject
Metric name: fraction unbound at 4 h, 0.1 μg/ml

COCC(O)c1ccc(-c2c(C)nc3c(N4CCOCC4)ccnn23)cn1 (single isomer, unassigned)
0.481

* * *

- Measurement notes: Plasma protein binding by equilibrium dialysis
- Format: in vitro ADME, human
- Particulars: male, human, plasma, pH 7.17, human plasma, 0.1 μg/ml; single determinations, subjects 1-3 in duplicate; equilibrium dialysis 4 h, 37° C.; read-out: Free fraction
Metric name: fraction unbound at 4 h, 0.1 μg/ml

COCC(O)c1ccc(-c2c(C)nc3c(N4CCOCC4)ccnn23)cn1 (single isomer, unassigned) [Compound 1a]
0.468

Cited source: patent US20150203498A1
